test system: Y16 cells; assay: ADCC activity against Y16 cells with human PBMC effector cells (LDH release); type: cell-based, mouse; conditions: 4 hrs, 0.0001-1000 ng/mL (control antibodies 1000 ng/mL), FIG. 13

{"columns": ["molecule", "ADCC activity against Y16 cells"],
 "data": [
  ["H7-3: N-linked sugar chain-deficient H7 chimeric antibody, human IgG1 (N297A), lacking ADCC activity (antibody, V domains shown) VH: EVQLQQSGAELGKPGTSVKLSCKVSGYNIKNTYIHWVNQRPGKGLEWIGRIDPANGNPIYAEKFKNKATLTADTSSNTAYMQLSQLKSDDTAIYFCAMHRGHSMGPGPYVMDAWGQGASVTVSS VL: DIQMTQSPASLSASLGETVTIECRTSEDIYNGLAWYQQKPGKSPQLLIYNANSLHTGVPSRFSGSGSGTQYSLKINSLQSEDVASYCCQQYSNYPFTFGSGTKLEIK", "none"],
  ["KM6161: N-linked sugar chain-deficient anti-DNP rat/human chimeric antibody containing N297A substitution, isotype control (antibody, V domains shown) VH: EVQLQESGPGLVKPSQSLSLTCSVTGYSITSGYWNWIRKFPGNKMEWIGYISYSGSTYYNPSLKSRISITRDTSKNQFFLQLNSVTTEDTATYYCARWGVRHYFDYWGQGVMATVSS VL: DVVMTQTPVSLPVSLGGQASISCRSSQSLANSYGNTYLSWYLQKPGQSPQLLIYRVSNTFSGVPDRFSGSGSGTDFTLKISRVEPEDLGDYYCLQGTHQPYTFGAGTKLELK", "none"],
  ["H7-4: N-linked sugar chain-deficient H7 chimeric antibody, human IgG1 (N297A), with Cys at VL position 87 replaced with Ser (antibody, V domains shown) VH: EVQLQQSGAELGKPGTSVKLSCKVSGYNIKNTYIHWVNQRPGKGLEWIGRIDPANGNPIYAEKFKNKATLTADTSSNTAYMQLSQLKSDDTAIYFCAMHRGHSMGPGPYVMDAWGQGASVTVSS VL: DIQMTQSPASLSASLGETVTIECRTSEDIYNGLAWYQQKPGKSPQLLIYNANSLHTGVPSRFSGSGSGTQYSLKINSLQSEDVASYSCQQYSNYPFTFGSGTKLEIK", "none"],
  ["KM8808: core fucose-deficient anti-dinitrophenol (DNP) rat/human chimeric antibody, isotype control (antibody, V domains shown) VH: EVQLQESGPGLVKPSQSLSLTCSVTGYSITSGYWNWIRKFPGNKMEWIGYISYSGSTYYNPSLKSRISITRDTSKNQFFLQLNSVTTEDTATYYCARWGVRHYFDYWGQGVMATVSS VL: DVVMTQTPVSLPVSLGGQASISCRSSQSLANSYGNTYLSWYLQKPGQSPQLLIYRVSNTFSGVPDRFSGSGSGTDFTLKISRVEPEDLGDYYCLQGTHQPYTFGAGTKLELK", "none"]
]}
